These entries and their values trace back to ChEMBL document CHEMBL1255494.

- PROCEDURE SUMMARY: Cmax in Candida albicans infected neutropenic ICR Swiss mouse at 20 mg/kg, ip
- Type: ADME, organism-based
- Design: dose 20 mg/kg, route intraperitoneal
- APPLIED CONDITIONS: ICR Swiss, in vivo
PROPERTY MEASURED: Cmax (ng/mL)
Give the quantity in ng/mL, number only.

Input: Tell me the measured Cmax of `CC[C@H](C)C[C@H](C)CCCCCCCCC(=O)N[C@H]1C[C@@H](O)[C@@H](NCCN)NC(=O)[C@@H]2[C@@H](O)CCN2C(=O)[C@H]([C@H](O)CCN)NC(=O)[C@H]([C@H](O)[C@@H](O)c2ccc(O)cc2)NC(=O)[C@@H]2C[C@@H](O)CN2C(=O)[C@H]([C@@H](C)O)NC1=O` , please.
Output: 26000

====

- PROCEDURE SUMMARY: Cmax in Candida albicans infected neutropenic ICR Swiss mouse at 80 mg/kg, ip
- Assay type: ADME, organism-based
- Parameters: dose 80 mg/kg, route intraperitoneal
- APPLIED CONDITIONS: ICR Swiss, in vivo
PROPERTY MEASURED: Cmax
Give me the value, and tack the unit on after it.

Input: Tell me the measured Cmax of CC[C@H](C)C[C@H](C)CCCCCCCCC(=O)N[C@H]1C[C@@H](O)[C@@H](NCCN)NC(=O)[C@@H]2[C@@H](O)CCN2C(=O)[C@H]([C@H](O)CCN)NC(=O)[C@H]([C@H](O)[C@@H](O)c2ccc(O)cc2)NC(=O)[C@@H]2C[C@@H](O)CN2C(=O)[C@H]([C@@H](C)O)NC1=O [CASPOFUNGIN] , please.
Output: 58 µg/mL

====

- PROCEDURE SUMMARY: AUC (0 to 24 hrs) in Candida albicans infected neutropenic ICR Swiss mouse at 80 mg/kg, ip
- Type: ADME, organism-based
- Design: time < 24 hr, dose 80 mg/kg, route intraperitoneal
- APPLIED CONDITIONS: plasma
*1 amine or outer side, *2 acyl side, *3 side chain or, on linkers, in order; H or OH if unused. Where a SMILES comes first, the peptide text is derived from it. Bridges are numbered along the chain shown (N, C = ends). [ ]: non-standard residue; d: D form. The star is where a group is joined. hTyr(3S-OH,4S-OH,3'-OSO3H) = N[C@H](C(=O)O)[C@H](O)[C@@H](O)c1ccc(O)c(OS(=O)(=O)O)c1; pTerphenylCO(4''-OnC5H11) = CCCCCOc1ccc(-c2ccc(-c3ccc(C(=O)*)cc3)cc2)cc1; Orn(4R-OH,5R-OH) = O=C([C@H](C[C@@H](O)[C@@H](O)N[*:3])N[*:1])[*:2]; hTyr(3S-OH,4S-OH) = N[C@H](C(=O)O)[C@H](O)[C@@H](O)c1ccc(O)cc1; Pro(3S-OH,4S-Me) = C[C@H]1CN[C@H](C(=O)O)[C@H]1O; X1 = CCCCCOc1ccc(-c2cc(-c3ccc(C(=O)*)cc3)no2)cc1; Gln(3R-OH) = NC(=O)C[C@@H](O)[C@H](N)C(=O)O; Hyp = O=C(O)[C@@H]1C[C@@H](O)CN1
PROPERTY MEASURED: AUC(0-t) at 24 h (µg·h/mL)
Give the quantity in µg·h/mL, number only.

Answered cases to consult:
| MOLECULE | MEASURE UNIT | AUC(0-t) at 24 h |
| --- | --- | --- |
| CCCCCOc1ccc(-c2ccc(-c3ccc(C(=O)N[C@H]4C[C@@H](O)[C@@H](O)NC(=O)[C@@H]5[C@@H](O)[C@@H](C)CN5C(=O)[C@H]([C@@H](C)O)NC(=O)[C@H]([C@H](O)[C@@H](O)c5ccc(O)cc5)NC(=O)[C@@H]5C[C@@H](O)CN5C(=O)[C@H]([C@@H](C)O)NC4=O)cc3)cc2)cc1 [ANIDULAFUNGIN] ({pTerphenylCO(4''-OnC5H11)}-[Orn(4R-OH,5R-OH)]T[Hyp][hTyr(3S-OH,4S-OH)]T[Pro(3S-OH,4S-Me)]; lactam 1-C) | µg·h/mL | 1980 |
| CC[C@H](C)C[C@H](C)CCCCCCCCC(=O)N[C@H]1C[C@@H](O)[C@@H](NCCN)NC(=O)[C@@H]2[C@@H](O)CCN2C(=O)[C@H]([C@H](O)CCN)NC(=O)[C@H]([C@H](O)[C@@H](O)c2ccc(O)cc2)NC(=O)[C@@H]2C[C@@H](O)CN2C(=O)[C@H]([C@@H](C)O)NC1=O | µg·h/mL | 667 |

# next molecule below
Input: Tell me the measured AUC(0-t) at 24 h of CCCCCOc1ccc(-c2cc(-c3ccc(C(=O)N[C@H]4C[C@@H](O)[C@@H](O)NC(=O)[C@@H]5[C@@H](O)[C@@H](C)CN5C(=O)[C@H]([C@H](O)CC(N)=O)NC(=O)[C@H]([C@H](O)[C@@H](O)c5ccc(O)c(OS(=O)(=O)O)c5)NC(=O)[C@@H]5C[C@@H](O)CN5C(=O)[C@H]([C@@H](C)O)NC4=O)cc3)no2)cc1 [MICAFUNGIN] (X1-[Orn(4R-OH,5R-OH)]T[Hyp][hTyr(3S-OH,4S-OH,3'-OSO3H)][Gln(3R-OH)][Pro(3S-OH,4S-Me)]; lactam 1-C) , please.
Output: 1400

====

- PROCEDURE SUMMARY: AUC (0 to 24 hrs) in Candida albicans infected neutropenic ICR Swiss mouse at 20 mg/kg, ip
- Type: ADME, organism-based
- Set-up: time < 24 hr, dose 20 mg/kg, route intraperitoneal
- APPLIED CONDITIONS: plasma
*1 amine or outer side, *2 acyl side, *3 side chain or, on linkers, in order; H or OH if unused. Where a SMILES comes first, the peptide text is derived from it. Bridges are numbered along the chain shown (N, C = ends). [ ]: non-standard residue; d: D form. The star is where a group is joined. hTyr(3S-OH,4S-OH,3'-OSO3H) = N[C@H](C(=O)O)[C@H](O)[C@@H](O)c1ccc(O)c(OS(=O)(=O)O)c1; pTerphenylCO(4''-OnC5H11) = CCCCCOc1ccc(-c2ccc(-c3ccc(C(=O)*)cc3)cc2)cc1; Orn(4R-OH,5R-OH) = O=C([C@H](C[C@@H](O)[C@@H](O)N[*:3])N[*:1])[*:2]; hTyr(3S-OH,4S-OH) = N[C@H](C(=O)O)[C@H](O)[C@@H](O)c1ccc(O)cc1; Pro(3S-OH,4S-Me) = C[C@H]1CN[C@H](C(=O)O)[C@H]1O; X1 = CCCCCOc1ccc(-c2cc(-c3ccc(C(=O)*)cc3)no2)cc1; Gln(3R-OH) = NC(=O)C[C@@H](O)[C@H](N)C(=O)O; Hyp = O=C(O)[C@@H]1C[C@@H](O)CN1
PROPERTY MEASURED: AUC(0-t) at 24 h (µg·h/mL)
Give the quantity in µg·h/mL, number only.

| COMPOUND | RESULT VALUE |
| --- | --- |
| CCCCCOc1ccc(-c2ccc(-c3ccc(C(=O)N[C@H]4C[C@@H](O)[C@@H](O)NC(=O)[C@@H]5[C@@H](O)[C@@H](C)CN5C(=O)[C@H]([C@@H](C)O)NC(=O)[C@H]([C@H](O)[C@@H](O)c5ccc(O)cc5)NC(=O)[C@@H]5C[C@@H](O)CN5C(=O)[C@H]([C@@H](C)O)NC4=O)cc3)cc2)cc1 [ANIDULAFUNGIN] ({pTerphenylCO(4''-OnC5H11)}-[Orn(4R-OH,5R-OH)]T[Hyp][hTyr(3S-OH,4S-OH)]T[Pro(3S-OH,4S-Me)]; lactam 1-C) | 382 |

# next compound below
Input: Tell me the measured AUC(0-t) at 24 h of CCCCCOc1ccc(-c2cc(-c3ccc(C(=O)N[C@H]4C[C@@H](O)[C@@H](O)NC(=O)[C@@H]5[C@@H](O)[C@@H](C)CN5C(=O)[C@H]([C@H](O)CC(N)=O)NC(=O)[C@H]([C@H](O)[C@@H](O)c5ccc(O)c(OS(=O)(=O)O)c5)NC(=O)[C@@H]5C[C@@H](O)CN5C(=O)[C@H]([C@@H](C)O)NC4=O)cc3)no2)cc1 [MICAFUNGIN] (X1-[Orn(4R-OH,5R-OH)]T[Hyp][hTyr(3S-OH,4S-OH,3'-OSO3H)][Gln(3R-OH)][Pro(3S-OH,4S-Me)]; lactam 1-C) , please.
Output: 520

====

- PROCEDURE SUMMARY: AUC (0 to 24 hrs) in Candida albicans infected neutropenic ICR Swiss mouse at 20 mg/kg, ip
- Assay type: ADME, organism-based
- Parameters: time < 24 hr, dose 20 mg/kg, route intraperitoneal
- APPLIED CONDITIONS: plasma
PROPERTY MEASURED: AUC(0-t) at 24 h (µg·h/mL)
Give the quantity in µg·h/mL, number only.

Input: Tell me the measured AUC(0-t) at 24 h of `CC[C@H](C)C[C@H](C)CCCCCCCCC(=O)N[C@H]1C[C@@H](O)[C@@H](NCCN)NC(=O)[C@@H]2[C@@H](O)CCN2C(=O)[C@H]([C@H](O)CCN)NC(=O)[C@H]([C@H](O)[C@@H](O)c2ccc(O)cc2)NC(=O)[C@@H]2C[C@@H](O)CN2C(=O)[C@H]([C@@H](C)O)NC1=O` , please.
Output: 345
